# Tested on: SF-539 CNS
# procedureDetails: NCI tumour cell line growth inhibition, 48 h; in the data active = GI50 below about 0.43 µM; inactive = the rest
Labels: active, inactive

compound: O=C(c1ccccc1)c1ccc(N2C(=O)C3C4c5ccccc5C(/C=C/C(=O)c5ccccn5)(c5ccccc54)C3C2=O)cc1 (stereo not given)
target: SF-539 CNS
assignedLabel: inactive
--
compound: CCc1c[nH]c2ncnc(N3CC[C@](N)(CNC(=O)c4ccc(F)cc4F)C3)c12
target: SF-539 CNS
assignedLabel: active
--
compound: CC(=O)Nc1ccc(C(=O)COc2cccc(/C=C3\CCc4ccccc4C3=O)c2)cc1
target: SF-539 CNS
assignedLabel: inactive
--
compound: O=C(Nc1cccc(C(F)(F)F)c1)Nc1ccc(OCc2nnc(-c3ccccc3)o2)c(F)c1
target: SF-539 CNS
assignedLabel: inactive
--
compound: O=C(COC(=O)[C@H](C[Se][Se]C[C@H](NC(=O)c1ccc(Br)cc1F)C(=O)OCC(=O)c1ccc(F)cc1)NC(=O)c1ccc(Br)cc1F)c1ccc(F)cc1
target: SF-539 CNS
assignedLabel: inactive

* * *

# Tested on: SK-OV-3 ovarian
# procedureDetails: NCI tumour cell line growth inhibition, 48 h

compound: COc1cccc2c(Nc3ccc(C(=O)NCCN4CCNCC4)cc3)cc(-c3ccccc3)nc12
TGI: > 100 µM

compound: Cc1cccc2c1Oc1ncccc1C2NC(=O)CN(C)C (stereo not given)
TGI: > 10 µM

compound: O=C1COc2c(CCNCCN(C(=O)CCNCCc3ccc(Cl)c(Cl)c3)C3CCCCC3)ccc(O)c2N1
TGI: 30.8 µM

compound: NC1=NN(c2ccccc2)C(=O)C1/C(=N\NC(=O)c1cc2ccccc2cc1O)C(=O)Nc1ccc(Cl)cc1 (stereo not given)
TGI: > 100 µM

compound: c1csc(-c2[nH]nc3c2CCc2ccccc2-3)c1
TGI: 65.6 µM

compound: COc1ccc(/[N+]([O-])=C/c2ccccc2OC(=S)S)cc1
TGI: > 100 µM

compound: O=C(CCc1ccccc1)NCCc1ccc(O)c(O)c1
TGI: > 100 µM

compound: CCOC(=O)C1C(=O)C(=O)N2CCc3c([nH]c4ccccc34)C12 (stereo not given)
TGI: > 100 µM

compound: Clc1ccc(N=CNc2ccc(-c3nc4ccccc4[nH]3)cc2)cc1
TGI: > 100 µM

compound: COc1cc([C@H]2c3cc(O)c(OC)cc3C[C@]3(O)[C@@H]2CO[C@@H]3O)ccc1O
TGI: > 100 µM

* * *

# Tested on: LOX IMVI melanoma
# procedureDetails: NCI tumour cell line growth inhibition, 48 h
Catalogue of TGI readings, one per entry.
readoutLabel: TGI (µM)

compound: O=C(c1ccccc1)c1ccc(N2C(=O)C3C4c5ccccc5C(/C=C/C(=O)c5ccccn5)(c5ccccc54)C3C2=O)cc1 (stereo not given)
readoutLabel: TGI
modifier: =
assayValue: 3.51

compound: CCc1n[nH]c(=O)n1-c1ccncc1
readoutLabel: TGI
modifier: >
assayValue: 100

compound: Brc1ccc2c(c1)-c1ccccc1C1=NCCN12
readoutLabel: TGI
modifier: =
assayValue: 10.6

compound: CCC(=C(c1ccc(OCCN(CC)CC)cc1)c1ccc(OCCN(CC)CC)cc1)c1ccc(Cl)cc1
readoutLabel: TGI
modifier: =
assayValue: 1.03

compound: COc1cc(-c2nn(-c3cccc(NC(=O)c4cccc(C(F)(F)F)c4)c3)cc2-c2ccncc2)ccc1Cl
readoutLabel: TGI
modifier: >
assayValue: 50

* * *

# Test system: SK-MEL-2 melanoma
# procedureDetails: NCI tumour cell line growth inhibition, 48 h
readoutLabel: TGI (µM)

compound: Nc1c(/C=C/c2cc3cc(C4=NCCN4)ccc3o2)[nH]c2cc(C3=NCCN3)ccc12
valueUnit: µM
modifier: >
assayValue: 100
//
compound: COc1ccc(NC(=S)Nc2cccc(C)n2)cc1
valueUnit: µM
modifier: >
assayValue: 100
//
compound: CC(=O)OC1C(C)OC(OC2C[C@](O)(C(C)=O)Cc3c(O)c4c(c(O)c32)C(=O)c2ccccc2C4=O)C(F)C1OC(C)=O (stereo not given in full)
valueUnit: µM
modifier: =
assayValue: 11.3
//
compound: N#Cc1c(N)nc(N2CCOCC2)c(C#N)c1-c1ccc(Cl)cc1Cl
valueUnit: µM
modifier: =
assayValue: 32.4
//
compound: CN1OC(CO)CC12C1CC3CC(C1)CC2C3 (stereo not given)
valueUnit: µM
modifier: >
assayValue: 100
//
compound: CCCCCCCCCCCC1=C(O)C(=O)C=C(O)C1=O
valueUnit: µM
modifier: =
assayValue: 12.5
//
compound: OCCn1c(-c2ccncc2)c(-c2ccc(F)cc2)c2ncccc21
valueUnit: µM
modifier: >
assayValue: 25
//
compound: CCc1c[nH]c2ncnc(N3CC[C@](N)(CNC(=O)c4ccc(F)cc4F)C3)c12
valueUnit: µM
modifier: >
assayValue: 100
//
compound: O=C(Nc1cccc(C(F)(F)F)c1)Nc1ccc(OCc2nnc(-c3ccccc3)o2)c(F)c1
valueUnit: µM
modifier: =
assayValue: 25.8
//
compound: Cc1[nH]n(C(=O)c2ccc(Cl)cc2)c(=O)c1/C=C1\C(O)=CC(=O)c2ccccc21
valueUnit: µM
modifier: >
assayValue: 100

* * *

Parameter: TGI. Scope: all listed entries.
# System: NCI-H460 lung
# procedureDetails: NCI tumour cell line growth inhibition, 48 h
readoutLabel: TGI

compound: Clc1ccc(N=CNc2ccc(-c3nc4ccccc4[nH]3)cc2)cc1
target: NCI-H460 lung
readoutLabel: TGI
assayValue: > 100 µM

compound: O=C1C(=O)c2c(ccc3ccccc23)-c2ccccc21
target: NCI-H460 lung
readoutLabel: TGI
assayValue: 3.08 µM

compound: N#Cc1c(N)n(-c2nc3ccccc3s2)c(=O)c2cc([N+](=O)[O-])ccc12
target: NCI-H460 lung
readoutLabel: TGI
assayValue: > 65.8 µM

compound: C=CCCC1(CCP(=O)(c2ccccc2)c2ccccc2)OCCO1
target: NCI-H460 lung
readoutLabel: TGI
assayValue: > 100 µM

compound: NC1=NN(c2ccccc2)C(=O)C1/C(=N\NC(=O)c1cc2ccccc2cc1O)C(=O)Nc1ccc(Cl)cc1 (stereo not drawn)
target: NCI-H460 lung
readoutLabel: TGI
assayValue: > 100 µM

compound: Nc1cc(O)c2cc(N=Nc3ccc(N=Nc4ccc(N=Nc5ccc6cc(S(=O)(=O)O)cc(S(=O)(=O)O)c6c5)c5ccccc45)c4cc(S(=O)(=O)O)ccc34)c(S(=O)(=O)O)cc2c1
target: NCI-H460 lung
readoutLabel: TGI
assayValue: > 100 µM

compound: CC(C)(C)OC(=O)NCCCCC1NC(=O)[C@@H]2Cc3c([nH]c4ccccc34)C(c3ccccc3)N2C1=O (stereo partly drawn)
target: NCI-H460 lung
readoutLabel: TGI
assayValue: > 100 µM

compound: c1csc(-c2[nH]nc3c2CCc2ccccc2-3)c1
target: NCI-H460 lung
readoutLabel: TGI
assayValue: 34.3 µM

compound: COC(=O)c1ccccc1NCc1cc(O)ccc1O
target: NCI-H460 lung
readoutLabel: TGI
assayValue: > 31.6 µM

compound: COc1cc2c(cc1OCCCN1CCN(CCCn3c4ccccc4c4ccccc43)CC1)N=C[C@@H]1CCCN1C2=O
target: NCI-H460 lung
readoutLabel: TGI
assayValue: 0.916 µM

compound: CC(=O)OCC1OC(OC(C)=O)C(NC#N)C(OC(C)=O)C1OC(C)=O (stereo not drawn)
target: NCI-H460 lung
readoutLabel: TGI
assayValue: > 100 µM

compound: CCOC(=O)C1(NC(=O)OC(C)(C)C)CCc2[nH]oc(=O)c2C1 (stereo not drawn)
target: NCI-H460 lung
readoutLabel: TGI
assayValue: > 100 µM

compound: NC1CC(n2ccc(=O)[nH]c2=O)OC1C(O)CO (stereo not drawn)
target: NCI-H460 lung
readoutLabel: TGI
assayValue: > 100 µM

compound: CNc1nc(OC)c2c(n1)[n+](C)cn2C
target: NCI-H460 lung
readoutLabel: TGI
assayValue: > 100 µM

compound: O=[N+]([O-])C1(CO)COC(CCc2ccccc2)OC1 (stereo not drawn)
target: NCI-H460 lung
readoutLabel: TGI
assayValue: > 100 µM

compound: COc1cc(-c2nn(-c3cccc(NC(=O)c4cccc(C(F)(F)F)c4)c3)cc2-c2ccncc2)ccc1Cl
target: NCI-H460 lung
readoutLabel: TGI
assayValue: 9.27 µM

compound: O=C(Nc1cccc(C(F)(F)F)c1)Nc1ccc(OCc2nnc(-c3ccccc3)o2)c(F)c1
target: NCI-H460 lung
readoutLabel: TGI
assayValue: 15.3 µM

compound: O=C1C[C@@]23CCC4(CC2=CCC[C@H]3O1)OCCO4
target: NCI-H460 lung
readoutLabel: TGI
assayValue: > 100 µM

compound: Cn1c(=O)c(Oc2ccc(F)cc2F)cc2cnc(NC3CCC(O)CC3)nc21 (stereo not drawn)
target: NCI-H460 lung
readoutLabel: TGI
assayValue: > 25 µM

compound: Brc1ccc2c(c1)-c1ccccc1C1=NCCN12
target: NCI-H460 lung
readoutLabel: TGI
assayValue: 2.71 µM

compound: CC(C)c1nc(Cl)c(Cl)c(Cl)n1
target: NCI-H460 lung
readoutLabel: TGI
assayValue: 48.4 µM

compound: CCCCSC1=N/C(=C\c2ccccc2O)C(Cl)=N1
target: NCI-H460 lung
readoutLabel: TGI
assayValue: > 100 µM

compound: CCCCCCCCCCCCCCCC(=O)OCC(COP(=O)(O)OCCNC(=O)CCSSc1ccccn1)OC(=O)CCCCCCCCCCCCCCC (stereo not drawn)
target: NCI-H460 lung
readoutLabel: TGI
assayValue: > 100 µM

compound: COc1cccc2c(Nc3ccc(C(=O)NCCN4CCNCC4)cc3)cc(-c3ccccc3)nc12
target: NCI-H460 lung
readoutLabel: TGI
assayValue: > 100 µM

compound: COc1cc(COC(=O)NC(Cc2cccs2)C(=O)O)c([N+](=O)[O-])cc1OC (stereo not drawn)
target: NCI-H460 lung
readoutLabel: TGI
assayValue: > 100 µM

compound: CN1C/C(=C\c2ccco2)c2nc(N)nc(-c3ccco3)c2C1
target: NCI-H460 lung
readoutLabel: TGI
assayValue: > 100 µM

compound: COc1cc(O)c2c(=O)c(O)c(-c3ccc(O)c(O)c3)oc2c1
target: NCI-H460 lung
readoutLabel: TGI
assayValue: 20.6 µM

compound: CC(=O)Oc1c(OC(C)C)cc(=O)n2ccsc12
target: NCI-H460 lung
readoutLabel: TGI
assayValue: > 100 µM

compound: OCCn1c(-c2ccncc2)c(-c2ccc(F)cc2)c2ncccc21
target: NCI-H460 lung
readoutLabel: TGI
assayValue: > 25 µM

compound: O=C1Cc2c([nH]c3c(Br)cccc23)-c2ccccc2N1
target: NCI-H460 lung
readoutLabel: TGI
assayValue: > 100 µM

compound: COc1ccc(NC(=S)Nc2cccc(C)n2)cc1
target: NCI-H460 lung
readoutLabel: TGI
assayValue: > 100 µM

compound: Nc1nc(N)c(-c2ccccc2)c(C(=O)Nc2nccs2)n1
target: NCI-H460 lung
readoutLabel: TGI
assayValue: > 100 µM

compound: O=C1c2sccc2C(=O)c2c(CO)csc21
target: NCI-H460 lung
readoutLabel: TGI
assayValue: 6.96 µM

compound: CN(C)c1ccc(/C=C2\Cc3ccccc3C2=O)cc1Br
target: NCI-H460 lung
readoutLabel: TGI
assayValue: > 100 µM

compound: Cc1cccc2c1Oc1ncccc1C2NC(=O)CN(C)C (stereo not drawn)
target: NCI-H460 lung
readoutLabel: TGI
assayValue: > 10 µM

compound: N#Cc1c2c(c(Nc3ccc(Cl)cc3)n3c1nc1ccccc13)CCCC2
target: NCI-H460 lung
readoutLabel: TGI
assayValue: > 100 µM

compound: CN1CCN(Cc2ccc(NC(=O)c3cncc(C#Cc4cnc5cccnn45)c3)cc2C(F)(F)F)CC1
target: NCI-H460 lung
readoutLabel: TGI
assayValue: 3.44 µM

compound: CCn1c(SC)nnc1-c1cc2c([nH]c3ccccc32)c(-c2cccc(O)c2)n1
target: NCI-H460 lung
readoutLabel: TGI
assayValue: 16.6 µM
